target-under-test: Tyrosyl-DNA phosphodiesterase 2 (Homo sapiens, UniProt O95551)
Sequence (O95551 whole entry): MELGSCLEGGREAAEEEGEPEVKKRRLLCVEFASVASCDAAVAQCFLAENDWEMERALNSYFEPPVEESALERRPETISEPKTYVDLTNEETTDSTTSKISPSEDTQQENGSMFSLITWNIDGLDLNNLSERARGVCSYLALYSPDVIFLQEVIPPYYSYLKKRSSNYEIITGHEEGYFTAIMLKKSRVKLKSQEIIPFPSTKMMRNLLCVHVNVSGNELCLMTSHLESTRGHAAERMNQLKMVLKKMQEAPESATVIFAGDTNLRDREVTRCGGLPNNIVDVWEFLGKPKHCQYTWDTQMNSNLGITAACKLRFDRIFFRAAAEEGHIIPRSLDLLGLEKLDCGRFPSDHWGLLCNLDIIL
assay-remarks: Inhibition of human TDP2 expressed in DT40 cells (TDP2-knockout) using 18-mer single stranded oligonucleotide DNA as substrate incubated for 15 mins by PAGE assay
// values below are reported IC50
Number first, unit second.

The recorded IC50 for O=C1Cc2cc(-c3nc4ccccc4s3)ccc2C(=O)N1 is 11 µM

***
The recorded IC50 for CC(=O)c1cccc(-c2ccc3c(c2)CC(=O)NC3=O)c1 is 15 µM

The recorded IC50 for Nc1ccc(-c2ccc3c(c2)CC(=O)NC3=O)cc1 is 40 µM

The recorded IC50 for O=C1Cc2cc(-c3ccc(F)cc3F)ccc2C(=O)N1 is 5.5 µM

The recorded IC50 for Nc1cccc(-c2ccc3c(c2)CC(=O)NC3=O)c1 is 55 µM

The recorded IC50 for COc1ccc(-c2ccc3c(c2)CC(=O)NC3=O)cc1F is 4.3 µM

The recorded IC50 for CS(=O)(=O)Nc1cccc(-c2ccc3c(c2)CC(=O)NC3=O)c1 is 25 µM

The recorded IC50 for O=C1Cc2cc(-c3cccc(O)c3)ccc2C(=O)N1 is 35 µM

The recorded IC50 for O=C1Cc2cc(-c3cccc(C(=O)O)c3)ccc2C(=O)N1 is 42 µM

The recorded IC50 for O=C1Cc2cc(-c3ccc(Cl)cc3)ccc2C(=O)N1 is 4.5 µM

The recorded IC50 for O=C1Cc2cc(I)ccc2C(=O)N1 is 9.3 µM
